Cited source for all entries: PubChem BioAssay (NCI)

assay: NCI Yeast Anticancer Drug Screen. Data for the mec2-1 strain (AID 157); settings: S. cerevisiae mec2-1 strain, at 50.0 µM
This is part of a sample that, as a whole, favours compounds with a hit. Of some 79,000 tested, about 15% had one in any assay. The source made the active and inactive calls. No stated cut-off is given here; in the data, active means growth inhibition above about 70%; inactive means the rest.
Result category, one only: active, inactive

Task: Per the records of this test, what outcome belongs to O=c1[nH]c2c([N+](=O)[O-])cccc2c2ccccc12 ?
Result: active

Task: Per the records of this test, what outcome belongs to Oc1c2c(c(O)c3ccccc13)C1(N=N2)c2ccccc2Oc2ccccc21 ?
Result: active

Task: Per the records of this test, what outcome belongs to NC(=O)NC1C(c2ccccc2)=C1c1ccccc1 ?
Result: inactive
